target: Cholinesterase (Equus caballus, UniProt P81908); test: Inhibition of equine serum BuChE using butyrylthiocholine iodide as substrate incubated for 15 mins by Ellman's method
Sequence (P81908 whole entry): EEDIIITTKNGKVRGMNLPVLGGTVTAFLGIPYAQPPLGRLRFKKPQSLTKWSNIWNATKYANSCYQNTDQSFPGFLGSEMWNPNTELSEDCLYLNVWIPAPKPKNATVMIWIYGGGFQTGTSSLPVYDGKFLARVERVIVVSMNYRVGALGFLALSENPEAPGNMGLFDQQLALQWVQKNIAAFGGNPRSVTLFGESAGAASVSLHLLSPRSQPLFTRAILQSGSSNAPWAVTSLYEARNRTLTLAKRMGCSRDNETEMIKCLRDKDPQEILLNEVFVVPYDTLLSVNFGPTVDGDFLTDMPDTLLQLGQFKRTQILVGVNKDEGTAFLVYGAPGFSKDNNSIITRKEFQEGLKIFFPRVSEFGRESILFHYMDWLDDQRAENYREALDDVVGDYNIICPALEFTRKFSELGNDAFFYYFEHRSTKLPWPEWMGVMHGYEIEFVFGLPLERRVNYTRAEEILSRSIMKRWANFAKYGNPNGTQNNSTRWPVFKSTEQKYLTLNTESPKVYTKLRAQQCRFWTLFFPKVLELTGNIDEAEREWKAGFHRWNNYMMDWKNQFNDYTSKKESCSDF
recorded metric: pIC50
Please treat pIC50 as minus the base-10 logarithm of the molar concentration.

Incoming: # lookup: pIC50 of "CN(C)c1ccc(/C=C/C(=O)c2ccc(OCCCCCCN3CCc4ccccc4C3)cc2O)cc1"
Outgoing: 4.98

Incoming: # lookup: pIC50 of "O=C(/C=C/c1cccc(OCCCCCCN2CCc3ccccc3C2)c1)c1ccccc1O"
Outgoing: 5.39

Incoming: # lookup: pIC50 of "O=C(/C=C/c1cccc(OCCCCCN2CCc3ccccc3C2)c1)c1ccccc1O"
Outgoing: 5.43

Incoming: # lookup: pIC50 of "COc1ccccc1/C=C/C(=O)c1ccc(OCCCCN2CCc3ccccc3C2)cc1O"
Outgoing: 5.28

Incoming: # lookup: pIC50 of "O=C(/C=C/c1cccc(OCCCCN2CCC(Cc3ccccc3)CC2)c1)c1ccccc1O"
Outgoing: 5.31

----------
Please go through the items and note down their inhibition.
target: UniProt:P05067; assay: Inhibition of self-induced aggregation of amyloid beta (1 to 42) (unknown origin) at 25 uM incubated for 24 hrs by thioflavin-T fluorescence assay relative to control
Sequence (P05067 whole entry): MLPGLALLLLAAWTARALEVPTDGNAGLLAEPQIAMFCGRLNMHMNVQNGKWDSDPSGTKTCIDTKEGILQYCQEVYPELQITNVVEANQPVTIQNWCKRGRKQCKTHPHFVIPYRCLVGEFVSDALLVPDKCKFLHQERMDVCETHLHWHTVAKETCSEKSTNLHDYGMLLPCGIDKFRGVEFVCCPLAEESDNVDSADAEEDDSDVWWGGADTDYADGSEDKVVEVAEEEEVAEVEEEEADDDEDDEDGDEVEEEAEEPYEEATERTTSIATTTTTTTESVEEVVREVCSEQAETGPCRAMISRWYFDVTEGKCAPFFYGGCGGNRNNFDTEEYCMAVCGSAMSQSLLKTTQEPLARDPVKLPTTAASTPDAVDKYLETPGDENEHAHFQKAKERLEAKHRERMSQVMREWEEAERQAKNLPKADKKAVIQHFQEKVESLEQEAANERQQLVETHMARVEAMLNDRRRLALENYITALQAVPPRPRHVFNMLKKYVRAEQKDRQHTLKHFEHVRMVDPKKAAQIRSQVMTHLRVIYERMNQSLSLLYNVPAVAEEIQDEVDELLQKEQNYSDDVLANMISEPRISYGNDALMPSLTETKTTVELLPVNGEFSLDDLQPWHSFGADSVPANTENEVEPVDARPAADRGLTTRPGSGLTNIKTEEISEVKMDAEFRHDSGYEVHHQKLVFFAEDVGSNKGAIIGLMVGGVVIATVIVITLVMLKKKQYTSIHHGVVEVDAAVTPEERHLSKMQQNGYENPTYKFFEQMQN
Don't forget the unit after the number, please.

Incoming: # lookup: inhibition of "CN(C)c1ccc(/C=C/C(=O)c2ccc(OCCCCCCN3CCc4ccccc4C3)cc2O)cc1"
Outgoing: 97.5%

Incoming: # lookup: inhibition of "O=C(/C=C/c1cccc(OCCCCN2CCC(Cc3ccccc3)CC2)c1)c1ccccc1O"
Outgoing: 71.4%

Incoming: # lookup: inhibition of "COc1ccccc1/C=C/C(=O)c1ccc(OCCCCN2CCc3ccccc3C2)cc1O"
Outgoing: 83.1%

Incoming: # lookup: inhibition of "O=C(/C=C/c1cccc(OCCCCCN2CCc3ccccc3C2)c1)c1ccccc1O"
Outgoing: 69.7%

Incoming: # lookup: inhibition of "O=C(/C=C/c1cccc(OCCCCCCN2CCc3ccccc3C2)c1)c1ccccc1O"
Outgoing: 65.6%

Incoming: # lookup: inhibition of "O=C(/C=C/c1ccc(F)cc1)c1ccc(OCCCN2CCc3ccccc3C2)cc1O"
Outgoing: 72.4%

Incoming: # lookup: inhibition of "O=C(/C=C/c1cccc(OCCCCN2CCc3ccccc3C2)c1)c1ccccc1O"
Outgoing: 70.2%

Incoming: # lookup: inhibition of "O=C(/C=C/c1cccc(OCCCN2CCc3ccccc3C2)c1)c1ccccc1O"
Outgoing: 65.9%

----------
target: Acetylcholinesterase (Electrophorus electricus)
Sequence (O42275 whole entry): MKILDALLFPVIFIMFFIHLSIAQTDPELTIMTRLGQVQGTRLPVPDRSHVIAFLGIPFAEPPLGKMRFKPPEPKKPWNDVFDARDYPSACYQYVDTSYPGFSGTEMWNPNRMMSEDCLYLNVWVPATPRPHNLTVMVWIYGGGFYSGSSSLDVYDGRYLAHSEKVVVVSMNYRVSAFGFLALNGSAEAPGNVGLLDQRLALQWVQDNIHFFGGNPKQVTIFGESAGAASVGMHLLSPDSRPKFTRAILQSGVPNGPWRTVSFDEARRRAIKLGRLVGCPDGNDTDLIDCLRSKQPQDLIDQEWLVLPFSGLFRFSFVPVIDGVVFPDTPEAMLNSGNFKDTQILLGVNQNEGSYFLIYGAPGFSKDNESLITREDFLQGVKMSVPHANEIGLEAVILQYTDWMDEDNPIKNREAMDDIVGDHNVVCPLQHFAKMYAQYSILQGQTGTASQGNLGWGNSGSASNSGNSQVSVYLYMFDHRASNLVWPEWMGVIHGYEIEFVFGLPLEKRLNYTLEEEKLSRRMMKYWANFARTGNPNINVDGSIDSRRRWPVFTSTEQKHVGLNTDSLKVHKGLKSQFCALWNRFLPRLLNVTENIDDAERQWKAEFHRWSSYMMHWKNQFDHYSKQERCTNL
recorded metric: IC50 (µM)
Unit µM implied. Number only.

Incoming: Item "COc1ccccc1/C=C/C(=O)c1ccc(OCCCCN2CCc3ccccc3C2)cc1O" with Acetylcholinesterase (Electrophorus electricus) - IC50?
Outgoing: 8.3

Incoming: Item "O=C(CCc1cccc(OCCCCN2CCc3ccccc3C2)c1)c1ccccc1O" with Acetylcholinesterase (Electrophorus electricus) - IC50?
Outgoing: 23.1

Incoming: Item "O=C(/C=C/c1cccc(OCCCCN2CCc3ccccc3C2)c1)c1ccccc1O" with Acetylcholinesterase (Electrophorus electricus) - IC50?
Outgoing: 16.2

Incoming: Item "O=C(/C=C/c1ccc(F)cc1)c1ccc(OCCCN2CCc3ccccc3C2)cc1O" with Acetylcholinesterase (Electrophorus electricus) - IC50?
Outgoing: 22.3

Incoming: Item "O=C(/C=C/c1cccc(OCCCCCCN2CCc3ccccc3C2)c1)c1ccccc1O" with Acetylcholinesterase (Electrophorus electricus) - IC50?
Outgoing: 27.1

Incoming: Item "O=C(/C=C/c1cccc(OCCCCN2CCC(Cc3ccccc3)CC2)c1)c1ccccc1O" with Acetylcholinesterase (Electrophorus electricus) - IC50?
Outgoing: 15.3

Incoming: Item "O=C(/C=C/c1cccc(OCCCCCN2CCc3ccccc3C2)c1)c1ccccc1O" with Acetylcholinesterase (Electrophorus electricus) - IC50?
Outgoing: 18.6

Incoming: Item "O=C(/C=C/c1cccc(OCCCN2CCc3ccccc3C2)c1)c1ccccc1O" with Acetylcholinesterase (Electrophorus electricus) - IC50?
Outgoing: 17.6

Incoming: Item "CN(C)c1ccc(/C=C/C(=O)c2ccc(OCCCCCCN3CCc4ccccc4C3)cc2O)cc1" with Acetylcholinesterase (Electrophorus electricus) - IC50?
Outgoing: 6.6
